Data credit: PubChem BioAssay AID1918930

Test system: 233499-124-R-J3-PDC complex spheroid viability, % test/control
Test: Anticancer human tumor 233499-124-R-J3-PDC patient-derived colon adenocarcinoma cell line growth inhibition; active means viability on the fitted dose curve at most 10% of control; inactive means the rest
Details: second compound 0.1 µM; first compound 0.01 µM
Excerpt: Multicellular complex tumor spheroid response to LSD1 Inhibitor Iadademstat in combination with a variety of drugs and investigational agents in selected tumor cell lines The current study was undertaken to assess response to LSD1 inhibitors in combination with standard-of-care drugs and investigational agents in solid tumor complex spheroid models as well as in the K-562 leukemia. […] Compounds. […] If the clinical Cmax for an agent had not been determined, the highest concentration tested was 10 microM. […]
Permitted responses: active, inactive

QUERY: Please state the recorded outcome for this molecule: Cn1ncnc1C1c2n[nH]c(=O)c3cc(F)cc(c23)NC1c1ccc(F)cc1 (stereo not drawn) + NC1CCC(NC2CC2c2ccccc2)CC1
RESULT: inactive

QUERY: Please state the recorded outcome for this molecule: CC1COCCN1c1cc(-c2ccnn2C)c2ccnc(-c3ccn[nH]3)c2n1 (stereo not drawn) + NC1CC1c1ccc(-c2cccc(O)c2)cc1
RESULT: inactive

QUERY: Please state the recorded outcome for this molecule: CC(C)CC(NC(=O)CNC(=O)c1cc(Cl)ccc1Cl)B1OC(=O)CC(CC(=O)O)(C(=O)O)O1 (stereo not drawn) + NC1CCC(NC2CC2c2ccccc2)CC1
RESULT: active

QUERY: Please state the recorded outcome for this molecule: Nc1ncn(C2CC(O)C(CO)O2)c(=O)n1 (stereo not drawn) + NC1CC1c1ccc(-c2cccc(O)c2)cc1
RESULT: inactive

QUERY: Please state the recorded outcome for this molecule: O=C(C=Cn1cnc(-c2cc(C(F)(F)F)cc(C(F)(F)F)c2)n1)NNc1cnccn1 + NC1CCC(NC2CC2c2ccccc2)CC1
RESULT: inactive

QUERY: Please state the recorded outcome for this molecule: CC[C@@]1(O)C(=O)OCc2c1cc1n(c2=O)Cc2cc3c(CN(C)C)c(O)ccc3nc2-1 + NC1CC1c1ccc(-c2cccc(O)c2)cc1
RESULT: inactive

QUERY: Please state the recorded outcome for this molecule: COc1cc(Nc2ncc3c(n2)-c2ccc(Cl)cc2C(c2c(F)cccc2OC)=NC3)ccc1C(=O)O + NC1CC1c1ccc(-c2cccc(O)c2)cc1
RESULT: inactive

QUERY: Please state the recorded outcome for this molecule: CC(C)CC(NC(=O)CNC(=O)c1cc(Cl)ccc1Cl)B1OC(=O)CC(CC(=O)O)(C(=O)O)O1 (stereo not drawn) + NC1CC1c1ccc(-c2cccc(O)c2)cc1
RESULT: active

---

Give measured viability, T/C for each item. Keep answers brief.
tested on: 233499-124-R-J3-PDC complex spheroid viability, % test/control; experiment: Anticancer human tumor 233499-124-R-J3-PDC cell line growth inhibition; details: second compound 0.316 µM; first compound 0.00316 µM; stronger effect = lower value;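 further: spheroids exposed to agents for one week before readout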
Express it in %; write the number only.

QUERY: Let me know recorded viability, T/C for Cn1ncnc1C1c2n[nH]c(=O)c3cc(F)cc(c23)NC1c1ccc(F)cc1 (configuration not stated) + NC1CCC(NC2CC2c2ccccc2)CC1 , thanks.
RESULT: 100

QUERY: Let me know recorded viability, T/C for CC(C)CC(NC(=O)C(Cc1ccccc1)NC(=O)c1cnccn1)B(O)O (configuration not stated) + NC1CCC(NC2CC2c2ccccc2)CC1 , thanks.
RESULT: 46

QUERY: Let me know recorded viability, T/C for O=C(C=Cn1cnc(-c2cc(C(F)(F)F)cc(C(F)(F)F)c2)n1)NNc1cnccn1 + NC1CCC(NC2CC2c2ccccc2)CC1 , thanks.
RESULT: 119

QUERY: Let me know recorded viability, T/C for Nc1ncn(C2CC(O)C(CO)O2)c(=O)n1 (configuration not stated) + NC1CC1c1ccc(-c2cccc(O)c2)cc1 , thanks.
RESULT: 120

QUERY: Let me know recorded viability, T/C for CC1COCCN1c1cc(-c2ccnn2C)c2ccnc(-c3ccn[nH]3)c2n1 (configuration not stated) + NC1CCC(NC2CC2c2ccccc2)CC1 , thanks.
RESULT: 101

QUERY: Let me know recorded viability, T/C for COc1cc(Nc2ncc3c(n2)-c2ccc(Cl)cc2C(c2c(F)cccc2OC)=NC3)ccc1C(=O)O + NC1CC1c1ccc(-c2cccc(O)c2)cc1 , thanks.
RESULT: 49.5

QUERY: Let me know recorded viability, T/C for CC(C)CC(NC(=O)CNC(=O)c1cc(Cl)ccc1Cl)B1OC(=O)CC(CC(=O)O)(C(=O)O)O1 (configuration not stated) + NC1CC1c1ccc(-c2cccc(O)c2)cc1 , thanks.
RESULT: 88.4

---

Test system: 233499-124-R-J3-PDC complex spheroid viability, % test/control
Test: Anticancer human tumor 233499-124-R-J3-PDC cell line growth inhibition;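 further: spheroids exposed to agents for one week before readout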
Settings: second compound 1 µM; first compound 0.00949 µM; stronger effect = lower value
From the text: Multicellular complex tumor spheroid response to LSD1 Inhibitor Iadademstat in combination with a variety of drugs and investigational agents in selected tumor cell lines The current study was undertaken to assess response to LSD1 inhibitors in combination with standard-of-care drugs and investigational agents in solid tumor complex spheroid models as well as in the K-562 leukemia. […] Compounds. […] If the clinical Cmax for an agent had not been determined, the highest concentration tested was 10 microM. […]
Classify: Yes when viability, T/C is strictly less than 90%; No when viability, T/C is not.

QUERY: Does this compound meet the criterion viability, T/C < 90%? O=C(C=Cc1cccc(S(=O)(=O)Nc2ccccc2)c1)NO + NC1CC1c1ccc(-c2cccc(O)c2)cc1
RESULT: No

QUERY: Does this compound meet the criterion viability, T/C < 90%? O=C(C=Cc1cccc(S(=O)(=O)Nc2ccccc2)c1)NO + NC1CCC(NC2CC2c2ccccc2)CC1
RESULT: Yes

QUERY: Does this compound meet the criterion viability, T/C < 90%? Nc1ccccc1NC(=O)c1ccc(CNC(=O)OCc2cccnc2)cc1 + NC1CCC(NC2CC2c2ccccc2)CC1
RESULT: Yes

QUERY: Does this compound meet the criterion viability, T/C < 90%? Nc1ccn(C2OC(CO)C(O)C2(F)F)c(=O)n1 (centres undefined) + NC1CC1c1ccc(-c2cccc(O)c2)cc1
RESULT: Yes

QUERY: Does this compound meet the criterion viability, T/C < 90%? Nc1ccn(C2OC(CO)C(O)C2(F)F)c(=O)n1 (centres undefined) + NC1CCC(NC2CC2c2ccccc2)CC1
RESULT: Yes

QUERY: Does this compound meet the criterion viability, T/C < 90%? COc1cc(C2c3cc4c(cc3C(OC3OC5COC(C)OC5C(O)C3O)C3COC(=O)C23)OCO4)cc(OC)c1O (centres undefined) + NC1CCC(NC2CC2c2ccccc2)CC1
RESULT: No

QUERY: Does this compound meet the criterion viability, T/C < 90%? CCc1c2c(nc3ccc(O)cc13)-c1cc3c(c(=O)n1C2)COC(=O)[C@]3(O)CC + NC1CC1c1ccc(-c2cccc(O)c2)cc1
RESULT: No

---

Give measured viability, T/C for each item. Keep answers brief.
test system: 233499-124-R-J3-PDC complex spheroid viability, % test/control; assay: Anticancer human tumor 233499-124-R-J3-PDC cell line growth inhibition; conditions: second compound 0.1 µM; first compound 0.001 µM; stronger effect = lower value;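 further: spheroids exposed to agents for one week before readout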
Express it in %; write the number only.

QUERY: Let me know recorded viability, T/C for CC(C)CC(NC(=O)C(Cc1ccccc1)NC(=O)c1cnccn1)B(O)O (stereo not drawn) + NC1CCC(NC2CC2c2ccccc2)CC1 , thanks.
RESULT: 114

QUERY: Let me know recorded viability, T/C for CC[C@@]1(O)C(=O)OCc2c1cc1n(c2=O)Cc2cc3c(CN(C)C)c(O)ccc3nc2-1 + NC1CCC(NC2CC2c2ccccc2)CC1 , thanks.
RESULT: 76.6

QUERY: Let me know recorded viability, T/C for Cn1ncnc1C1c2n[nH]c(=O)c3cc(F)cc(c23)NC1c1ccc(F)cc1 (stereo not drawn) + NC1CC1c1ccc(-c2cccc(O)c2)cc1 , thanks.
RESULT: 105

QUERY: Let me know recorded viability, T/C for CC(C)CC(NC(=O)CNC(=O)c1cc(Cl)ccc1Cl)B1OC(=O)CC(CC(=O)O)(C(=O)O)O1 (stereo not drawn) + NC1CCC(NC2CC2c2ccccc2)CC1 , thanks.
RESULT: 90.2

QUERY: Let me know recorded viability, T/C for CC[C@@]1(O)C(=O)OCc2c1cc1n(c2=O)Cc2cc3c(CN(C)C)c(O)ccc3nc2-1 + NC1CC1c1ccc(-c2cccc(O)c2)cc1 , thanks.
RESULT: 99

QUERY: Let me know recorded viability, T/C for Cn1ncnc1C1c2n[nH]c(=O)c3cc(F)cc(c23)NC1c1ccc(F)cc1 (stereo not drawn) + NC1CCC(NC2CC2c2ccccc2)CC1 , thanks.
RESULT: 99.2

QUERY: Let me know recorded viability, T/C for CC(C)CC(NC(=O)C(Cc1ccccc1)NC(=O)c1cnccn1)B(O)O (stereo not drawn) + NC1CC1c1ccc(-c2cccc(O)c2)cc1 , thanks.
RESULT: 0.42

QUERY: Let me know recorded viability, T/C for CC(C)CC(NC(=O)CNC(=O)c1cc(Cl)ccc1Cl)B1OC(=O)CC(CC(=O)O)(C(=O)O)O1 (stereo not drawn) + NC1CC1c1ccc(-c2cccc(O)c2)cc1 , thanks.
RESULT: 105
